Reference for the values: ChEMBL document CHEMBL1201862

Exercise: state measured GI50 for each of the compounds provided.
system: HCT-116; experiment: NCI tumour cell line growth inhibition, 48 h
The source made the active and inactive calls. No stated cut-off is given here; in the data, active = GI50 up to about 1.1 µM and inactive = higher.

- compound: "COc1ccc2c(c1OC)C1=C(C2=O)c2cc3c(cc2CCN1)OCO3"
  GI50: "32.8 µM (inactive)"
- compound: "Cc1cccc(Nc2nc3ccccc3nc2NS(=O)(=O)c2ccccc2)c1"
  GI50: "27.4 µM (inactive)"
- compound: "COc1cc2c(cc1OC)-c1c(cnn1C1OC(COC(C)=O)C(OC(C)=O)C(OC(C)=O)C1OC(C)=O)CC2 (stereo not given)"
  GI50: "> 100 µM (inactive)"

Could you tell me GI50 for each of these compounds? They are listed below.
1. COc1ccc(C)cc1-c1cc(Sc2ccccc2)c(-c2cc(C)ccc2OC)o1
2. CCCCCCCc1ccc(-c2nnc(/N=N/c3ccc(OCCCCC)cc3)s2)s1

["> 31.6 µM (inactive)", "> 100 µM (inactive)"]

----------
test system: OVCAR-5; experiment: NCI tumour cell line growth inhibition, 48 h
Calls of active or inactive are those of the source. Cut-off read from the data, not from the text of the source: active = GI50 up to about 1.1 µM and inactive = higher.
Select the matching outcome among 1 = active, 0 = inactive

Answered cases to consult:
- compound: "COc1cccc2c1C(=O)c1c(O)c3c(c(O)c1C2=O)C[C@@](O)(C(=O)CO)CC3OC1CC(O)C(O)C(C)O1 (stereo not given in full)"
  measured target: "OVCAR-5"
  group label: 1
- compound: "COc1ccc(OC)c(NC(=O)C(=O)Nn2c(S)nc3ccccc3c2=O)c1"
  measured target: "OVCAR-5"
  group label: 0
- compound: "NC(=O)C12CC3CC(CC(Br)(C3)C1)C2"
  measured target: "OVCAR-5"
  group label: 0
- compound: "CCC(C)C(C(=O)N/N=C1/SCC(=O)N1c1ccccc1)C(=O)N/N=C1/SCC(=O)N1c1ccccc1 (stereo not given)"
  measured target: "OVCAR-5"
  group label: 0
- compound: "c1ccc(-c2nn(-c3ccccc3)[n+](-c3ccccc3)n2)cc1 [TETRAZOLIUM RED]"
  measured target: "OVCAR-5"
  group label: 0
- compound: "CC1=C(C(=O)NCc2ccccc2)C(/C=C/c2ccccc2)C(C(=O)NCc2ccccc2)=C(C)N1"
  measured target: "OVCAR-5"
  group label: 0
- compound: "COc1ccc([C@H]2CC(=O)N3CCCC3N2)cc1 (stereo not given in full)"
  measured target: "OVCAR-5"
  group label: 0
- compound: "N=C(N)N/N=C/c1c(-c2ccc([N+](=O)[O-])cc2)nc2sc(Cl)cn12"
  measured target: "OVCAR-5"
  group label: 0
- compound: "CNc1c2cccc(C)c2nc2c(C(=O)NCCN(C)C)cccc12"
  measured target: "OVCAR-5"
  group label: 1

Below: the item to evaluate.
Hi team, can someone confirm the assay call for "COc1ccc(-c2c(C#N)c(N)nc(S)c2C#N)cc1" ?
0

----------
Could you please report measured GI50 for the items listed next?
system: NCI-H226; assay: NCI tumour cell line growth inhibition, 48 h
Calls of active or inactive are those of the source. No stated cut-off is given here; in the data, active = GI50 up to about 1.1 µM and inactive = higher.

- compound: "O=C(O)c1ccc(-c2nc3cc(Cl)ccc3[nH]2)cc1"
  result: "> 100 µM (inactive)"
- compound: "CCOC(=O)C(C)(c1c(C)[nH]c2ccccc12)c1c(C)[nH]c2ccccc12"
  result: "13.5 µM (inactive)"
- compound: "COC1/C=C\\C=C(/C)C(=O)NC2=CC(=O)C(O)=C(CC(C)CC(OC)C(O)C(C)/C=C(\\C)C1OC(N)=O)C2=O (stereo unspecified)"
  result: "> 100 µM (inactive)"
- compound: "CCc1ccc2c(c1)/C(=C1/Nc3ccccc3C1=O)C(=O)N2"
  result: "18.7 µM (inactive)"
- compound: "COc1cc(CCCl)c(CC2=NCCc3cc(OC)c(OC)cc32)cc1OC"
  result: "> 100 µM (inactive)"

Would you mind listing GI50 for each of the following compounds?
1. CCCCc1c2c(nc3c1CCc1cc4cc5c(nc4nc1-3)-c1nc3c(c(CCCC)c1CC5)CCCC3)CCCC2
2. OC1(c2ccccc2)c2ccccc2N=C2NCCN21 (stereo unspecified)
3. O=c1[nH]c(=O)n([C@H]2C[C@H](O)[C@@H](CO)O2)cc1Br [BROXURIDINE]
4. O=C1OC(c2ccccc2)=N/C1=C\c1ccc(Cl)cc1
5. O=C1C(Cl)=C(N2CCC[C@H]2CO)C(=O)c2c(O)ccc(O)c21

1. 19.4 µM (inactive)
2. > 100 µM (inactive)
3. > 100 µM (inactive)
4. > 100 µM (inactive)
5. > 10 µM (inactive)

----------
system: MDA-MB-231; test: NCI tumour cell line growth inhibition, 48 h
The source made the active and inactive calls. Rule as the data show it: active = GI50 up to about 1.1 µM and inactive = higher.
Exercise: state measured GI50 for each of the compounds provided.

- compound: "O=C(O)C1=C(C(=O)O)N(c2ccncc2)C(c2ccco2)=CC1c1ccccc1[N+](=O)[O-] (stereo not given)"
  measured target: "MDA-MB-231"
  GI50: "14.2 µM (inactive)"
- compound: "CCOC(=O)C[C@@H]1C2(C=C[C@@]13CO3)OCC(C)(C)CO2"
  measured target: "MDA-MB-231"
  GI50: "> 100 µM (inactive)"

For every record below, what is its GI50?
1. C=CCCCCOC1C=CC(OC(C)=O)C(COC(C)=O)O1 (stereo not given)
2. CN(C)/N=N/c1nc2c(c(=O)n(C)c(=O)n2C)n1CC1CO1 (stereo not given)
3. Cc1cc2nc3c(C#N)c(-c4ccccc4)cc(Nc4ccc(F)cc4)n3c2cc1C
4. CCOC(=O)c1ccc(N[C@@H]2c3cc4c(cc3C(c3cc(OC)c(O)c(OC)c3)[C@H]3C(=O)OCC32)OCO4)cc1 (stereo not given in full)

["> 100 µM (inactive)", "16.9 µM (inactive)", "15.1 µM (inactive)", "1.67 µM (inactive)"]

Below are 4 compounds. Give each one its GI50.
1. COc1ccc(-c2c(C#N)c(N)nc(S)c2C#N)cc1
2. COc1cccc2c1C(=O)c1c(O)c3c(c(O)c1C2=O)C[C@@](O)(/C(C)=N\O)C[C@@H]3OC1CC(N)C(O)C(C)O1 (stereo not given in full)
3. CSc1c2c(C)n[nH]c2nn1-c1ccccc1
4. Cn1nc2n(c1=O)CCCN2

1. 26.1 µM (inactive)
2. 2.51 µM (inactive)
3. 18.4 µM (inactive)
4. > 100 µM (inactive)

----------
system: MDA-MB-435; experiment: NCI tumour cell line growth inhibition, 48 h
Where a name gives a salt, the structure may show the parent alone. Active and inactive are the calls of the source. Cut-off read from the data, not from the text of the source: active = GI50 up to about 1.1 µM and inactive = higher.
measured metric: GI50

Here's what some known entries look like.
- compound: "CC(=O)OC1CN2CCC1CC2 (stereo not drawn)"
  measured metric: "GI50"
  result: "> 100 µM (inactive)"
- compound: "CC(=O)NC(Cc1c[nH]c2ccccc12)C(=O)O (stereo not drawn)"
  measured metric: "GI50"
  result: "> 100 µM (inactive)"

Query compound follows.
Please report the recorded GI50 for CN(C)CCOC(c1ccccc1)c1ccccc1 [DIPHENHYDRAMINE HYDROCHLORIDE] .
> 100 µM (inactive)

----------
system: SK-OV-3; test: NCI tumour cell line growth inhibition, 48 h
Calls of active or inactive are those of the source. Cut-off read from the data, not from the text of the source: active = GI50 up to about 1.1 µM and inactive = higher.
Field: GI50. Provide a value for each of the compounds that follow.

- compound: "Nc1ncc(N)c(NCC2(CO)CC(CCc3ccccc3)C2)n1 (stereo not given)"
  result: "12.2 µM (inactive)"
- compound: "Cc1c(Cl)c(=O)oc2cc(OCC(O)COC(C)C)ccc12 (stereo not given)"
  result: "> 100 µM (inactive)"
- compound: "CC1=CC(C)(c2c[nH]c3ccccc23)CC(C)(C)c2c1[nH]c1ccccc21 (stereo not given)"
  result: "28.6 µM (inactive)"
- compound: "COc1ccc([C@H]2CC(=O)N3CCCC3N2)cc1 (stereo not given in full)"
  result: "> 100 µM (inactive)"
- compound: "CC1CCC(O)C(C(O)CC2CC(=O)N(C)C(=O)C2)C1 (stereo not given)"
  result: "> 100 µM (inactive)"
- compound: "CC(Nc1ccc(Cl)c(Cl)c1)c1ccncc1 (stereo not given)"
  result: "11.4 µM (inactive)"
- compound: "Cc1nnc(N)nc1/C=C/c1c(O)ccc2ccccc12"
  result: "27.5 µM (inactive)"
- compound: "COc1cc2c(c(OC)c1OC)C(=O)[C@@H]1[C@H]2N1C(=O)NCCCl"
  result: "> 100 µM (inactive)"
- compound: "Cc1ccc(O)c(C2=CC(c3cccc(Br)c3)SC(=N)N2)c1 (stereo not given)"
  result: "28.8 µM (inactive)"

We now examine a further compound.
I am curious: what GI50 value has been reported for "C=CCOC(=O)CCCCCCCCCCCCCCCOC(=O)c1c(CCC[C@@H](C)O[Si](C)(C)C(C)(C)C)nc([O-])[n+]2c1CC[C@H]2CC1(CC/C=C\[C@H](CC)O[Si](C(C)C)(C(C)C)C(C)C)OCCO1" ?
> 100 µM (inactive)
